EXPERIMENTAL PROTOCOL: Tanguay_ZF_120hpf_SWIM_legacy: (Legacy) Oregon State University Tanguay Lab 120 Hour Post-fertilization zebrafish Assay for Swim Bladder Malformation (AID 2283654);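 also: swim bladder malformation in each larva scored yes or no under brightfield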
Protocol: Tanguay_ZF_120hpf_legacy is a whole embryo, multiplexed endpoint assay using zebrafish larvae exposed for 120 hours post fertilization on a 96-well plate.Tanguay_ZF_120hpf_SWIM_legacy is one of one assay component(s) measured or calculated from the Tanguay_ZF_120hpf_legacy assay. […] This assay endpoint, Tanguay_ZF_120hpf_SWIM_legacy, was analyzed in the positive analysis fitting direction relative to DMSO as the negative control and baseline of activity. […]
Inconclusive results are not listed. The source made the active and inactive calls. The calls were made as follows: active = hit-call score of the fitted dose curve at least 0.9, where 1 is the maximum; inconclusive = response in the unintended direction; inactive = score below 0.9.
Your answer must be one of the following: active, inactive

[
  {
    "COMPOUND": "CCCCOC(=O)c1ccccc1C(=O)OCCCC",
    "LABEL CLASS": "inactive"
  },
  {
    "COMPOUND": "CON(C)C(=O)Nc1ccc(Cl)c(Cl)c1",
    "LABEL CLASS": "inactive"
  },
  {
    "COMPOUND": "CNC(=O)ON=CC(C)(C)SC",
    "LABEL CLASS": "inactive"
  },
  {
    "COMPOUND": "O=C(Nc1ccccc1)Nc1ccnc(Cl)c1",
    "LABEL CLASS": "inactive"
  },
  {
    "COMPOUND": "CCCCNC(=O)n1c(NC(=O)OC)nc2ccccc21",
    "LABEL CLASS": "inactive"
  },
  {
    "COMPOUND": "Cc1c(F)c(F)c(COC(=O)C2C(/C=C(\\Cl)C(F)(F)F)C2(C)C)c(F)c1F (centres undefined)",
    "LABEL CLASS": "inactive"
  }
]

Qu. Hello, I am checking results. What call was entered for COP(=S)(OC)Oc1nc(Cl)c(Cl)cc1Cl ?
Ans. inactive

Qu. Also, CC(C)(C)c1ccc(CSc2cnn(C(C)(C)C)c(=O)c2Cl)cc1 please.
Ans. inactive

Qu. Also, CCOC(=O)CC(SP(=S)(OC)OC)C(=O)OCC (centres undefined) please.
Ans. active
